These data points were gathered from patent US20140348834A1.

I'd appreciate it if you could supply koff values for the items below.
molecular target: T1, human IL-17A/F (human, UniProt Q16552 24-155; Q96PD4 31-163); experiment: SPR (Biacore 3000), antibody captured by anti-Fc, antigen in solution;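 note: purified recombinant IL-17 antigens flowed over captured antibodies in HBS-EP buffer, global Langmuir one-to-one fit of association and dissociation phases, KD derived from koff over kon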
T1 construct: Recombinant; biotinylated in the ELISA; also called hIL-17A/F; HuIL-17A/F
T1 sequence (Q16552 24-155, chain 1 of 2): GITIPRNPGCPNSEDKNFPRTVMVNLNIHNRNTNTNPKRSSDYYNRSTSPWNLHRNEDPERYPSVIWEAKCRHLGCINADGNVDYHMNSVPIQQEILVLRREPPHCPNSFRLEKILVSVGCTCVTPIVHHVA
T1 sequence (Q96PD4 31-163, chain 2 of 2): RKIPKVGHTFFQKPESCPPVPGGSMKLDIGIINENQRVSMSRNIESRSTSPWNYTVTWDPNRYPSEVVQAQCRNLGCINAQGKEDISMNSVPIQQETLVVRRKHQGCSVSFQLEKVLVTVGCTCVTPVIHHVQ
Give bare numbers, in s⁻¹.

Field: example entries. Status: answers known.
IL17-h5C5.8 (antibody, V domains shown, IgG; constant regions not specified; also called h5C5.8 (VH.1-Vk.1a)) VH: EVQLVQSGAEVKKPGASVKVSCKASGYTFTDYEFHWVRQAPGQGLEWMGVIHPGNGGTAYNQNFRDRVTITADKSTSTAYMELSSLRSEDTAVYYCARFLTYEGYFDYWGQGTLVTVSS VL: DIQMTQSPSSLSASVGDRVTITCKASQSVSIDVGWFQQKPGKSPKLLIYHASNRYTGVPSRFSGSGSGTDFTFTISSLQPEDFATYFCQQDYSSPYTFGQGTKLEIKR	0.00121
IL17-h10F7.6 (antibody, V domains shown, IgG; constant regions not specified; also called h10F7.6 (VH.1a-Vk.1a)) VH: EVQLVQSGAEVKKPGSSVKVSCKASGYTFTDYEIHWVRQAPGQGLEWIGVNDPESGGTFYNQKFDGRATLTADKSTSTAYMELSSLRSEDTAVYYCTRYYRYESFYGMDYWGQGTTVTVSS VL: DIQLTQSPSSLSASVGDRVTITCSASSSISYIYWFQQKPGKSPKRWIYATFELASGVPSRFSGSGSGTDYTLTISSLQPEDFATYYCHQRSSYPWTFGQGTKLEIKR	0.000696

Consider the record given below.
Bench note: what koff did IL17-h5C5.9 (antibody, V domains shown, IgG; constant regions not specified; also called h5C5.9 (VH.1b-Vk.1a)) VH: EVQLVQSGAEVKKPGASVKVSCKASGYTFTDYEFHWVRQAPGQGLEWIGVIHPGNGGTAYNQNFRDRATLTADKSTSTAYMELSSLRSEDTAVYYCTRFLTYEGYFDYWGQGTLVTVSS VL: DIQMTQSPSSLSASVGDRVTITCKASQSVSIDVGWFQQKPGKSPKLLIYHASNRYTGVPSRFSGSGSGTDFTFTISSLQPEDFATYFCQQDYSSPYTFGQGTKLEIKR show?
0.00115
